# target: Beta-lactamase (Enterobacter cloacae) (UniProt P05364)
# Sequence (P05364 21-381 limits assumed): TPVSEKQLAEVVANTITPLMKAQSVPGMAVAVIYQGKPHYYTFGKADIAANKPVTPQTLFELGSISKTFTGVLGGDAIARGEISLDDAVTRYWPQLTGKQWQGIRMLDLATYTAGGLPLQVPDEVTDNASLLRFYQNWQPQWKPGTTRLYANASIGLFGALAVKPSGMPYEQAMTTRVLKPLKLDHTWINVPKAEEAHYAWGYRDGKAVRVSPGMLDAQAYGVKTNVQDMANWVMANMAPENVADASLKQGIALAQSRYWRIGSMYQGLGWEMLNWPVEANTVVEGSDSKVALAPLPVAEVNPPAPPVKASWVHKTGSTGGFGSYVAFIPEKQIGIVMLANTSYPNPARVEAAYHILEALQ
# experiment: Determination of kinetic constant (Kcat) for hydrolysis by beta-lactamase from Enterobacter cloacae P99
Recorded k cat values for a group of compounds are listed next.
All answers are understood in s⁻¹, so give the number only.

- O=C(O)CCCC(=O)N[C@@H]1C(=O)N2C(C(=O)O)=C(COC(=O)Nc3ccc(N(CCCl)CCCl)cc3)CS[C@H]12: 337
- CO[C@@]12[C@H](COC(N)=O)C3=C(C(=O)C(C)=C(NCC4=C(C(=O)O)N5C(=O)[C@@H](NC(=O)Cc6ccccc6)[C@H]5SC4)C3=O)N1C[C@@H]1N[C@@H]12: 476
- CO[C@@]12[C@H](COC(N)=O)C3=C(C(=O)C(C)=C(NCC4=C(C(=O)O)N5C(=O)[C@@H](NC(=O)CCCC(=O)O)[C@H]5SC4)C3=O)N1C[C@@H]1N[C@@H]12: 248

Shift focus to the following entry.
stdin: Please state recorded k cat (tested on Beta-lactamase (Enterobacter cloacae) (UniProt P05364)) of `O=C(Cc1ccccc1)N[C@@H]1C(=O)N2C(C(=O)O)=C(COC(=O)Nc3ccc(N(CCCl)CCCl)cc3)CS[C@H]12`
stdout: 119
